- Target or system: hSK1 channels (Homo sapiens, UniProt Q92952)
- Method notes: Whole-cell patch-clamp recording of SK channel current in HEK293 cells expressing hSK1
- Conditions: concentration required for decreasing the baseline current to 50% of the initial current
pKd: −log10 of the molar value.
Collected pKd values appear next to each entry.
Measurement name: pKd

> print(dat)
                                   molecule     val
1  CON=CNc1nc2nccc(C(C)Oc3ccc(C4CCCC4)cc3)n2n1 (centres unmarked) [Example 5]  < 5.52
2  CON=CNc1nc2nccc(C(C)Oc3ccc(C(C)(C)C)cc3)n2n1 (centres unmarked) [Example A]  > 7.00
3  CON=CNc1nc2nccc(COc3ccc(C(C)(C)C)cc3)n2n1 [Example 4]  < 5.52
4  CON=CNc1nc2nccc(C(C)Oc3ccc(C(C)(C)C)cc3C)n2n1 (centres unmarked) [Example 7]  > 7.00
5  CON=CNc1nc2nccc(C(C)Oc3ccc(OC(C)(C)C)cc3)n2n1 (centres unmarked) [Example 9]  > 7.00

* * *

- Target or system: hSK1 channels (Homo sapiens, UniProt Q92952)
- Method notes: Whole-cell patch-clamp recording of SK channel current in HEK293 cells expressing hSK1
- Conditions: concentration required for decreasing the baseline current to 50% of the initial current
Collected Kd values appear next to each entry.
Measurement name: Kd

> print(dat)
                                   molecule             val
1  CON=CNc1nc2nccc(C(C)Oc3ccc(C(C)C)cc3)n2n1 (stereo not drawn)       > 3000 nM
2  CC(Oc1ccc(C(C)(C)C)cc1)c1ccnc2nc(NC=NO)nn12 (stereo not drawn)  100 to 1000 nM
3  CCC(Oc1ccc(C(C)(C)C)cc1)c1ccnc2nc(NC=NOC)nn12 (stereo not drawn)        < 100 nM
4  CON=CNc1nc2nccc(C(C)(C)Oc3ccc(C(C)(C)C)cc3)n2n1  100 to 1000 nM
5  CCCON=CNc1nc2nccc(C(C)Oc3ccc(C(C)(C)C)cc3)n2n1 (stereo not drawn)        < 100 nM
6  CC(C)ON=CNc1nc2nccc(C(C)Oc3ccc(C(C)(C)C)cc3)n2n1 (stereo not drawn)       > 3000 nM
